Listing of recorded IC50 by entry.
biological target: Cdk4/CyclinD1 (Homo sapiens (Human)); test: Cdk4 kinase inhibition assay with recombinant Cdk4/CyclinD1, Rb substrate, [33P]-ATP filter plate; conditions: 25 μM ATP, read-out: Cdk 4 IC50
Sequence (P11802 whole entry): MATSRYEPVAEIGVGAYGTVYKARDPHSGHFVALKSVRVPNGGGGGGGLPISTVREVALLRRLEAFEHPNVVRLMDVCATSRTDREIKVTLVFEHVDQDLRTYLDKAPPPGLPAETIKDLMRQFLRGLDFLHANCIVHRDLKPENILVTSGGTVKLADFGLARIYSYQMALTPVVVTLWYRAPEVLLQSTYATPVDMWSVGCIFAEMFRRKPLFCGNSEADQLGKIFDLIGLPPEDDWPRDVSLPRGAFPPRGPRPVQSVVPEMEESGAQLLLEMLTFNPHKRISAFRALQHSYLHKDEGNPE
Sequence (P24385 whole entry partner): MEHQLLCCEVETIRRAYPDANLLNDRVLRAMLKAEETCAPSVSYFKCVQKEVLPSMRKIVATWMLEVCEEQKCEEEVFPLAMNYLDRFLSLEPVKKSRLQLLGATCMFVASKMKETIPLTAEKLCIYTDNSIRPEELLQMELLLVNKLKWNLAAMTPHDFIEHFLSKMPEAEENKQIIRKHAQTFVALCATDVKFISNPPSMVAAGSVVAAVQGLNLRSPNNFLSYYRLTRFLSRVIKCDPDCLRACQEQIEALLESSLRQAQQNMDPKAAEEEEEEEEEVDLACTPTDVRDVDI

[
  {
    "structure-string": "c1cc2c3cnc(Nc4ccc(N5CCCCC5)nn4)nc3n(C3CCCC3)c2cn1",
    "IC50 / nM": 8.4
  },
  {
    "structure-string": "CNC1CCN(c2ccc(Nc3ncc4c5ccncc5n(C[C@@H](C)O)c4n3)nn2)CC1",
    "IC50 / nM": 151
  },
  {
    "structure-string": "OC[C@@H]1CN(c2ccc(Nc3ncc4c5ccnc(F)c5n(C5CCCC5)c4n3)nc2)CCN1",
    "IC50 / nM": 4.5
  },
  {
    "structure-string": "CN(C)C1CCN(c2ccc(Nc3ncc4c5ccnc(O)c5n(C5CCC(C)(C)CC5)c4n3)nn2)CC1",
    "IC50 / nM": 9.8
  },
  {
    "structure-string": "Oc1ccc2c3cnc(Nc4ccc(N5CCNCC5)cn4)nc3n(C3CCCC3)c2n1",
    "IC50 / nM": 142
  }
]
